Molecular target: T1, FBF-2 RBD+CT Y479A (Caenorhabditis elegans, UniProt Q09312 164-632, Y479A)
T1 sequence: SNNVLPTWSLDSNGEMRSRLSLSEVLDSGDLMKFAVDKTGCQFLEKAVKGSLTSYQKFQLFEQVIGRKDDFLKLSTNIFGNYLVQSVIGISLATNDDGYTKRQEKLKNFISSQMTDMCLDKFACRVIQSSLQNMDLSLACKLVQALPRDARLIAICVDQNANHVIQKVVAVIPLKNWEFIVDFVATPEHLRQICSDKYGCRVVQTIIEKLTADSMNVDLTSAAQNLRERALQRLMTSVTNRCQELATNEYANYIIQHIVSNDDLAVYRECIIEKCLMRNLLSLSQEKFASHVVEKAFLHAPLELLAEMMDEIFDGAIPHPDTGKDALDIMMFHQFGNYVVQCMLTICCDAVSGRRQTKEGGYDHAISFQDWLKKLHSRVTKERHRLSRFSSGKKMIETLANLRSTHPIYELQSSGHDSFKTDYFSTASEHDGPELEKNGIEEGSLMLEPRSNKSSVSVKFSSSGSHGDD
Experiment: EMSA; 50 uM LST-1 B present (Y479A disrupts LST-1 binding, no complex); EMSA: FBF-2 in 20 mM HEPES pH 7.4, 150 mM NaCl, 0.5 mM TCEP mixed 1:1 with 5 nM final RNA in 10 mM HEPES pH 7.4, 0.01% Tween 20, 0.1 mg/ml BSA, 0.1 mg/ml yeast
Details: protein: recombinant; tags: none (His6-SUMO removed with Ulp1); label: 3'-Cy5
recorded-metric: pKd
Just so you know, pKd here is -log10 of the concentration in molar units; reply with that number alone.

Q: Tell me its pKd given AUCAUGUGCCAUAC (ssRNA) [gld-1 FBEa RNA (EMSA)] as the entry.
Ans: 7.39
